All figures here come from the supplement of paper PMC6555819.

# Test system: PPARg DBDmut IVT, anti-PPARg (DBD mutation: PPARg1 K132A/R137A, NR concentration 270 nM)
# protocolText: PBM binding z-score (relative to random genomic background probes); higher = stronger binding; sequences stand for … in GC…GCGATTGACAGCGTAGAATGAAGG
Returns Met if the recorded PBM binding z-score is greater than or equal to 0.8, and Not met otherwise.

The examples below pair each entry with its known result.
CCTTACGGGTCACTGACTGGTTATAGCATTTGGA : Not met
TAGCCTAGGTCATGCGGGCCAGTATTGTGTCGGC : Not met
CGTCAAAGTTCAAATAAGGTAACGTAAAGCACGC : Met
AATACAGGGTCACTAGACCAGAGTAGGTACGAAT : Not met
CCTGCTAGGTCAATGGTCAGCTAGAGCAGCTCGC : Not met

# check: PBM binding z-score of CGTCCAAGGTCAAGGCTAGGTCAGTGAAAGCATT is greater than or equal to 0.8
Not met

# check: PBM binding z-score of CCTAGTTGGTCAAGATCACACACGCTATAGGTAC is greater than or equal to 0.8
Met
